- Experimental Target: human MDM2 (GST-hMDM2 1-188), interaction with biotinylated-p53 (1-83) (Homo sapiens)
- Construct: Amino acid residues 1-188 of human MDM2 were expressed; made in house; host or cells: Escherichia coli
- Test Name: improved HTRF assay (HTRF2 assay), inhibition of HDM2-p53 interaction
- Type: binding
- Condition Set: 0.2 nM GST-hMDM2, 0.5 nM biotinylated-p53, 100 mM KF
pIC50: −log10 of the molar value.
The label depends only on pIC50: Satisfied if it is at least 8, Not satisfied if it is smaller.

{"Molecule": "CC[C@@H](CS(=O)(=O)C(C)(C)C)N1C(=O)[C@@H](C[C@@H](O)CO)O[C@H](c2cccc(Cl)c2)[C@H]1c1ccc(Cl)cc1 (single isomer, unassigned) [Example 373]", "Class": "Not satisfied"}
{"Molecule": "CC[C@@H](CS(=O)(=O)C(C)C)N1C(=O)[C@@H](CC(=O)O)O[C@H](c2cc(F)cc(Cl)c2)[C@H]1c1ccc(Cl)cc1 (single isomer, unassigned)", "Class": "Satisfied"}

###

- Experimental Target: human MDM2 (GST-hMDM2 1-188), interaction with biotinylated-p53 (1-83) (Homo sapiens)
- Construct: Amino acid residues 1-188 of human MDM2 were expressed
- Test Name: improved HTRF assay (HTRF2 assay), inhibition of HDM2-p53 interaction
- Condition Set: 0.2 nM GST-hMDM2, 0.5 nM biotinylated-p53, 100 mM KF
Measured Attribute: IC50 (nM)

{"Compound": "CC(C)(C)S(=O)(=O)C[C@H](C1CC1)N1C(=O)[C@@H](CC(=O)Nc2ccccn2)O[C@H](c2cccc(Cl)c2)[C@H]1c1ccc(Cl)cc1 (single isomer, unassigned) [Example 354]", "Value Qualifier": "=", "Recorded Number": 2}
{"Compound": "CC[C@@H](CS(=O)(=O)C(C)(C)C)N1C(=O)[C@@H](CC(=O)O)O[C@H](c2cc(Cl)cc(Cl)c2)[C@H]1c1ccc(Cl)cc1 (single isomer, unassigned) [Example 147]", "Value Qualifier": "=", "Recorded Number": 6}
{"Compound": "O=C(O)C[C@H]1OC(c2cccc(Cl)c2)C(c2ccc(Cl)cc2)N([C@H](CN(c2c(F)cccc2F)S(=O)(=O)C2CC2)C2CC2)C1=O (single isomer, unassigned)", "Value Qualifier": "<", "Recorded Number": 1}

###

- Experimental Target: human MDM2 (GST-hMDM2 1-188), interaction with biotinylated-p53 (1-83) (Homo sapiens, UniProt Q00987)
- Construct: Amino acid residues 1-188 of human MDM2 were expressed
- Sequence (Q00987 1-188): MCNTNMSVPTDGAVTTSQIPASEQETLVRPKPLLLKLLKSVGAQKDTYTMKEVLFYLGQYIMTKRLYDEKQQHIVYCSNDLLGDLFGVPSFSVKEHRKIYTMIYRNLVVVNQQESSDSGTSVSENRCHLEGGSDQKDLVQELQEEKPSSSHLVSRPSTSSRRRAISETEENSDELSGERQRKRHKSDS
- Test Name: improved HTRF assay (HTRF2 assay), inhibition of HDM2-p53 interaction
- Condition Set: 0.2 nM GST-hMDM2, 0.5 nM biotinylated-p53, 100 mM KF
pIC50: −log10 of the molar value.
# pIC50 per record follows

{"Molecule": "CC[C@@H](CS(=O)(=O)N1CCC[C@H]1C)N1C(=O)[C@@H](CC(=O)O)O[C@H](c2cccc(Cl)c2)[C@H]1c1ccc(Cl)cc1 (single isomer, unassigned) [Example 211]", "Value Qualifier": "=", "pIC50": 8.40}
{"Molecule": "CC(C)S(=O)(=O)C[C@H](C1CC1)N1C(=O)[C@@H](CC(=O)O)O[C@H](c2cccc(Cl)c2)[C@H]1c1ccc(Cl)cc1 (single isomer, unassigned) [Example 157]", "Value Qualifier": "=", "pIC50": 9.00}
{"Molecule": "CC[C@@H](CS(=O)(=O)C(C)(C)C)N1C(=O)[C@@H](C[C@@H](O)CO)O[C@H](c2cccc(Cl)c2)[C@H]1c1ccc(Cl)cc1 (single isomer, unassigned) [Example 374]", "Value Qualifier": "=", "pIC50": 7.72}
{"Molecule": "CC(C)(C)S(=O)(=O)C[C@H](CC(F)(F)F)N1C(=O)[C@@H](CC(N)=O)O[C@H](c2cccc(Cl)c2)[C@H]1c1ccc(Cl)cc1 (single isomer, unassigned) [Example 362]", "Value Qualifier": "=", "pIC50": 7.70}
{"Molecule": "CC(C)(C)S(=O)(=O)C[C@H](C1CC1)N1C(=O)[C@@H](CC(=O)O)O[C@H](c2cccc(Cl)c2)[C@H]1c1ccc(Cl)c(F)c1 (single isomer, unassigned) [Example 309]", "Value Qualifier": "=", "pIC50": 9.00}
{"Molecule": "CCC[C@@H](CS(=O)(=O)C(C)(C)C)N1C(=O)[C@@H](CC(=O)O)O[C@H](c2cccc(Cl)c2)[C@H]1c1ccc(Cl)cc1 (single isomer, unassigned) [Example 195]", "Value Qualifier": "=", "pIC50": 8.52}
{"Molecule": "O=C1[C@@H](Cc2nnn[nH]2)O[C@H](c2cccc(Cl)c2)[C@@H](c2ccc(Cl)cc2)N1[C@H](CN(c1ccccc1F)S(=O)(=O)C1CC1)C1CC1 (single isomer, unassigned) [Example 398]", "Value Qualifier": ">", "pIC50": 9.00}
{"Molecule": "CC1(C)CCCN1S(=O)(=O)C[C@H](C1CC1)N1C(=O)[C@@H](CC(=O)O)O[C@H](c2cccc(Cl)c2)[C@H]1c1ccc(Cl)cc1 (single isomer, unassigned) [Example 307]", "Value Qualifier": ">", "pIC50": 9.00}
{"Molecule": "CC[C@@H](CS(=O)(=O)C(C)(C)C)N1C(=O)[C@@H](CCOC)O[C@H](c2cccc(Cl)c2)[C@H]1c1ccc(Cl)cc1", "Value Qualifier": "=", "pIC50": 7.23}
{"Molecule": "O=C1[C@@H](Cc2ncn[nH]2)O[C@H](c2cccc(Cl)c2)[C@@H](c2ccc(Cl)cc2)N1[C@H](CN(c1ccccc1F)S(=O)(=O)C1CC1)C1CC1 (single isomer, unassigned) [Example 397]", "Value Qualifier": "=", "pIC50": 9.00}

// data source = patent US9376425B2
